biological target: human M2 receptor (Homo sapiens, UniProt P08172); construct: expressed in transfected cells; host or cells: CHO-DUKX (CHO-DUKX-M2-GIRK); assay: Functional M2-GIRK1/4 activation test: allosteric potency (EC50) and efficiency at EC20 acetylcholine; format: cell-based; settings: CHO-DUKX-M2-GIRK cells; voltage-sensitive dye; acetylcholine at EC20; in some cases mean of two or more determinations
List of EC50 values.
Readout kind: EC50 (nM)

INSERT INTO results (molecule, study_target, readout_kind, unit_text, val) VALUES
  ('O=C(NC(C1CC1)(C1CC1)C(F)(F)C(F)(F)F)c1cn(-c2c(F)cc(F)cc2F)c2nc(N3CC(CO)(CO)C3)c(F)cc2c1=O', 'human M2 receptor (Homo sapiens, UniProt P08172)', 'EC50', 'nM', 2),
  ('CC(C)C(NC(=O)c1cn(-c2c(F)cc(F)cc2F)c2nc(N3C[C@@H](O)[C@@H](O)C3)c(F)cc2c1=O)C(F)(F)F (mixture of isomers) [Example 123]', 'human M2 receptor (Homo sapiens, UniProt P08172)', 'EC50', 'nM', 3.1),
  ('CC(C)[C@H](C)NC(=O)c1cn(-c2c(F)cc(F)cc2F)c2nc(N3C[C@@H](O)[C@H](O)C3)c(F)cc2c1=O', 'human M2 receptor (Homo sapiens, UniProt P08172)', 'EC50', 'nM', 8.45);

----------
Listed here are molecules together with their documented Emax.
Target: human M2 receptor (Homo sapiens, UniProt P08172)
Construct: expressed in transfected cells; host or cells: CHO-DUKX (CHO-DUKX-M2-GIRK)
Sequence (P08172 1-466): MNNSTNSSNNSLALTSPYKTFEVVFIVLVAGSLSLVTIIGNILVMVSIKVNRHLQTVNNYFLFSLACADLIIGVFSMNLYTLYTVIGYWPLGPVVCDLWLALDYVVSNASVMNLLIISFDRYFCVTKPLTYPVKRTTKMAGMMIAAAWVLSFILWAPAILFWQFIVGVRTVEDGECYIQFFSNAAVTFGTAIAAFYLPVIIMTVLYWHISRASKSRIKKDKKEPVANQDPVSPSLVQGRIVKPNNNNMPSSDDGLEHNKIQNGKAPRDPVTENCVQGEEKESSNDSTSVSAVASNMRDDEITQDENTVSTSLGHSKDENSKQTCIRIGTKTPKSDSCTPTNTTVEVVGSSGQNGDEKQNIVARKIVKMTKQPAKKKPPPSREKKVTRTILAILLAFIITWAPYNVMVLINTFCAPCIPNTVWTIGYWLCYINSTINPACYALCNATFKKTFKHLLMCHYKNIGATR
Experiment: Functional M2-GIRK1/4 activation test: allosteric potency (EC50) and efficiency at EC20 acetylcholine
Format: cell-based
Conditions: boosting of the acetylcholine effect at EC20 acetylcholine concentration; CHO-DUKX-M2-GIRK cells
Readout kind: Emax (%)

INSERT INTO assay_data (molecule, val) VALUES
  ('CC(NC(=O)c1cn(-c2c(F)cc(F)cc2F)c2nc(N3CCC(O)(CO)CC3)c(F)cc2c1=O)C(F)(F)C(F)(F)F (single isomer, unassigned)', 87),
  ('CCC(NC(=O)c1cn(-c2c(F)cc(F)cc2F)c2nc(N3C[C@@H](O)[C@H](O)C3)c(Br)cc2c1=O)C(F)(F)C(F)(F)F (mixture of isomers)', 100),
  ('CC(NC(=O)c1cn(-c2ncc(F)cc2F)c2nc(N3CC[C@H](O)C3)c(F)cc2c1=O)C(F)(F)C(F)(F)F (single isomer, unassigned) [Example 128]', 90),
  ('CN(C)c1nc2c(cc1F)c(=O)c(C(=O)NC(C)(C)CC(F)(F)F)cn2-c1c(F)cc(F)cc1F', 92),
  ('O=C(N[C@@H](C1CC1)C(F)(F)F)c1cn(-c2c(F)cccc2F)c2nc(N3C[C@@H](O)[C@H](O)C3)c(F)cc2c1=O', 96),
  ('O=C(NC(C(F)(F)F)C(F)(F)F)c1cn(-c2c(F)cc(F)cc2F)c2nc(N3CC(CO)(CO)C3)c(F)cc2c1=O', 97);
